biological target: NMDA/polyamine sites (polyamine-sensitive [3H]-ifenprodil binding, rat cerebral cortex membranes) (Rattus norvegicus, UniProt P35439+Q00960); assay: NMDA/polyamine site [3H]-ifenprodil binding assay; details: competition curves analysed with Radlig; [3H]-ifenprodil 4 nM, rat cerebral cortex homogenate
Sequence (Q00960 27-1482, other chains not shown): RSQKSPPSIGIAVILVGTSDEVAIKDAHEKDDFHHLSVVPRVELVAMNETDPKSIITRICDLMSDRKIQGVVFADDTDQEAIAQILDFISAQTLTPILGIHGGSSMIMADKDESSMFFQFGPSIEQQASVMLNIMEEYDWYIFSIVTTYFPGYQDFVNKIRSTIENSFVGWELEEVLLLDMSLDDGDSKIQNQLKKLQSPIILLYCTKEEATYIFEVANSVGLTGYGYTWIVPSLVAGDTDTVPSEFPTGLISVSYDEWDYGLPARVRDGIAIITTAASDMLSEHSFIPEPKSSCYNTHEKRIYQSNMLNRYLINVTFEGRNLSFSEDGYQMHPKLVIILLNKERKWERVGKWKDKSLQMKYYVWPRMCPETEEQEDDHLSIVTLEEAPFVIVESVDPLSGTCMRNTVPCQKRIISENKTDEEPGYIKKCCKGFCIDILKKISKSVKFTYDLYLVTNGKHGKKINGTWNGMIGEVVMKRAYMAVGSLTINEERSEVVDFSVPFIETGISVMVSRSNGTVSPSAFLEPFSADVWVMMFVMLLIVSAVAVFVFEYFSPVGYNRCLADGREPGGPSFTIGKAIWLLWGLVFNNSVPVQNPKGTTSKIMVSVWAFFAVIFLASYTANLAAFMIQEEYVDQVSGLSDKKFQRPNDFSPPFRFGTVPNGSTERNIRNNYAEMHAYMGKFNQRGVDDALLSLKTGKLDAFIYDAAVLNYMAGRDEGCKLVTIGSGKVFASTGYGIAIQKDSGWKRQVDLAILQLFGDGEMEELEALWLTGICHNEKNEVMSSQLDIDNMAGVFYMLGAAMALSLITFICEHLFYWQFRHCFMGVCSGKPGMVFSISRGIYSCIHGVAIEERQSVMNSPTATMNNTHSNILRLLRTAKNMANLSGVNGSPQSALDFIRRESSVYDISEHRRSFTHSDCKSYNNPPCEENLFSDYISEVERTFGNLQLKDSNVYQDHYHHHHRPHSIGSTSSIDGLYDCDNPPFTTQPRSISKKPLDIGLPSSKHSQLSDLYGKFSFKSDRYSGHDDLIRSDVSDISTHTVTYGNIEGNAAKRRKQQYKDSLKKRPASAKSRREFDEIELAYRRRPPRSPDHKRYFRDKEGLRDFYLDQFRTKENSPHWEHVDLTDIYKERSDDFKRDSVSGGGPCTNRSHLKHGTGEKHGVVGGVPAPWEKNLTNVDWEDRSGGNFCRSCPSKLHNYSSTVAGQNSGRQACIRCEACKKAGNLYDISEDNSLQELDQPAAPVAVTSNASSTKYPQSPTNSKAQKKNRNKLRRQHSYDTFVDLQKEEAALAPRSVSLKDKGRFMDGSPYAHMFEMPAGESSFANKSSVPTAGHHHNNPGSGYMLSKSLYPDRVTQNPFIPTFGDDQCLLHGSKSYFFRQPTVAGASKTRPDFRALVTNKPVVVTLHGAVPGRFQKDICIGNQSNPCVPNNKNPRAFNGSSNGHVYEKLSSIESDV
MEASURED_ENDPOINT: Ki (µM)
# value in µM; strip the unit string

Prompt: Record request: Ki value, item OC(Cc1cc(N2CCCC2)nc(N2CCCC2)n1)c1cccc(OC(F)(F)F)c1 (stereo not shown)
Completion: 1.4
